- target or system: TLR4 (Homo sapiens, UniProt O00206+Q9Y6Y9)
- Sequence (O00206 24-839): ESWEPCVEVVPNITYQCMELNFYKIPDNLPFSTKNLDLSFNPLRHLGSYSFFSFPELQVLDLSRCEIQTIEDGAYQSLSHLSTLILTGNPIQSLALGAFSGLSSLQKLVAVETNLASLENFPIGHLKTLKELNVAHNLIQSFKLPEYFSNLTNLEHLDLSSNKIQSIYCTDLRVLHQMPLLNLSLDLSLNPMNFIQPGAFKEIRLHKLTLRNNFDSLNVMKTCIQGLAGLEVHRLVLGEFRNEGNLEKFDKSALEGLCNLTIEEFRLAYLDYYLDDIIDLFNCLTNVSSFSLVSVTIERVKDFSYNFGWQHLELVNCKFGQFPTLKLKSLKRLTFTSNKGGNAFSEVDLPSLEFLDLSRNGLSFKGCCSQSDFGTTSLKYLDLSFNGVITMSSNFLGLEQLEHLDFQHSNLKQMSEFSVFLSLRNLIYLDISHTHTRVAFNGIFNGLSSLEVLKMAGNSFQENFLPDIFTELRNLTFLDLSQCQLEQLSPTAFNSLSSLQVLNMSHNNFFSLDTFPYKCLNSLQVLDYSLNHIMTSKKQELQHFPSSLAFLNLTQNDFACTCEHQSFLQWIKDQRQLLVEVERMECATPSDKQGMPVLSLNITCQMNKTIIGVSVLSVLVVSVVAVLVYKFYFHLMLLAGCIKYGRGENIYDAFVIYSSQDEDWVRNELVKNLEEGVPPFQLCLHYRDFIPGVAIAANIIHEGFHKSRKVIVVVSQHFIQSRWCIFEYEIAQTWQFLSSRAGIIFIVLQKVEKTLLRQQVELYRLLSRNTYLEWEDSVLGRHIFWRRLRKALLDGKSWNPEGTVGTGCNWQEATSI
- Sequence (Q9Y6Y9 17-160 limits assumed): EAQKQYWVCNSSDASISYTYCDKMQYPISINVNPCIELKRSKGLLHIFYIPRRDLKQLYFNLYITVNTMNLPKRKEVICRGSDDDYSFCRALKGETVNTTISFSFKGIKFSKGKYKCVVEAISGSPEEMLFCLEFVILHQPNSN
- assay text: TLR4 NF-κB SEAP reporter assay in HEK-Blue hTLR4 cells
- assay context: 100 μM, 18 h, NF-κB transcriptional activity (SEAP) relative to 0.1% DMSO
Give TLR4 activation at 100 μM, fold increase for every item shown.
Numbers only here, please. The scale is fold increase.

q: Specify reported TLR4 activation at 100 μM, fold increase for the molecule shown: CCOC(=O)[C@H](CCC(=O)N1CCC(CN2CCN(C(=O)CSc3nc4c([nH]c5ccccc54)c(=O)n3-c3ccccc3)CC2)CC1)NC(=O)[C@H](NC(=O)CNC(=O)/C=C/c1ccc(O)c(OC)c1)C(C)C
a: 2.26

q: Specify reported TLR4 activation at 100 μM, fold increase for the molecule shown: CCOC(=O)[C@H](CCC(=O)NCCCCCCNC(=O)CSc1nc2c([nH]c3ccccc32)c(=O)n1-c1ccccc1)NC(=O)[C@H](NC(=O)CNC(=O)/C=C/c1ccc(O)c(OC)c1)C(C)C
a: 1.72

q: Specify reported TLR4 activation at 100 μM, fold increase for the molecule shown: CCOC(=O)[C@H](CCC(=O)NCCNC(=O)CSc1nc2c([nH]c3ccccc32)c(=O)n1-c1ccccc1)NC(=O)[C@H](NC(=O)CNC(=O)/C=C/c1ccc(O)c(OC)c1)C(C)C
a: 2.60
